From: patent US20240124427A1

Subject of test: human Gal-3 (hGal-3) (Homo sapiens (Human))
Sequence (P17931 whole entry): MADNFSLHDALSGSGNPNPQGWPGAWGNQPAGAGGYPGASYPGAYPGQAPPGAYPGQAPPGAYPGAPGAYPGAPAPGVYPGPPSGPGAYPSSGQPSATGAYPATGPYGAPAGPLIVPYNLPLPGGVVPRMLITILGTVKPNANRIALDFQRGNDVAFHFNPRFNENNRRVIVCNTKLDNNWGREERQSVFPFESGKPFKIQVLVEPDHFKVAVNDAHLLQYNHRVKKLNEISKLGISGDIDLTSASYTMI
Assay text: Competitive binding assay: biotinylated hGal-3 binding to microplate-adsorbed asialofetuin (ASF)
Settings: Activity on hGal-3; mean values of several measurements; mixture of diastereomers measured where not separated
Can you tell me pIC50 for the items I'm about to list?
Answers are plain numbers, as −log10 of the molar value.

Illustrative cases are given below, each with its answer.
CO[C@@H]1[C@@H](n2cc(-c3cc(F)c(C)c(F)c3)nn2)[C@@H](O)[C@@H](CO)O[C@H]1C(=O)N(c1cc(Br)cc(Br)c1)[C@@H]1COC[C@H]1O: 7.23
CO[C@@H]1[C@@H](n2cc(-c3ccc(Br)c(F)c3F)nn2)[C@@H](O)[C@@H](CO)O[C@H]1C(=O)N(c1cc(Cl)cc(Cl)c1)[C@H]1COC[C@@H]1O: 7.33
COc1cc(C#N)cc(N(C(=O)[C@@H]2O[C@H](CO)[C@H](O)[C@H](n3cc(-c4cc(F)c(F)c(F)c4)nn3)[C@H]2OC)[C@@H]2COC[C@H]2O)c1: 6.95

Continue with the compound presented below.
Return pIC50 for the following compound: CO[C@@H]1[C@@H](n2cc(-c3cc(F)c(F)c(F)c3)nn2)[C@@H](O)[C@@H](CO)O[C@H]1C(=O)N(c1cc(Br)cc(C#N)c1)[C@H]1CNC[C@@H]1O
7.29
